Tested on: monoclonal antibody of clone C-1 (anti-dioxin antibody)
Assay: Competitive EIA: inhibition of binding of clone C-1 monoclonal antibody to solid-phase antigen by free dioxin
Parameters: species or system mouse
Settings: solid-phase antigen immunogen 1, dioxin compound final concentration 5×10^−7 M
We use 10% as the dividing line for Inhibition rate: on or above the line is Condition met, below is Condition not met.

Worked set:
Clc1cc2c(cc1Cl)Oc1c(cc(Cl)c(Cl)c1Cl)O2 [1,2,3,7,8-PeCDD]: Condition met
Clc1cc2oc3cc(Cl)c(Cl)cc3c2cc1Cl [2,3,7,8-TeCDF]: Condition not met
Clc1cc2c(c(Cl)c1Cl)Oc1c(Cl)c(Cl)c(Cl)c(Cl)c1O2 [1,2,3,4,6,7,8-HpCDD]: Condition not met
Clc1cc2c(cc1Cl)Oc1cc(Cl)c(Cl)cc1O2 [2,3,7,8-TeCDD, 2,3,7,8-tetrachlorozibenzo-p-dioxin]: Condition not met
Clc1cc2c(cc1Cl)Oc1c(Cl)c(Cl)c(Cl)c(Cl)c1O2 [1,2,3,4,7,8-HxCDD]: Condition not met
Clc1cc2c(oc3cc(Cl)c(Cl)c(Cl)c32)c(Cl)c1Cl [1,2,3,6,7,8-HxCDF]: Condition not met
Clc1cc2c(oc3c(Cl)c(Cl)c(Cl)c(Cl)c32)c(Cl)c1Cl [1,2,3,4,6,7,8-HpCDF]: Condition not met
Clc1cc2oc3cc(Cl)c(Cl)c(Cl)c3c2c(Cl)c1Cl [1,2,3,7,8,9-HxCDF]: Condition met

Can Clc1cc2oc3cc(Cl)c(Cl)c(Cl)c3c2cc1Cl [1,2,3,7,8-PeCDF] be said to have Inhibition rate at or above 10%?
Condition met

Can Clc1cc2c(c(Cl)c1Cl)Oc1cc(Cl)c(Cl)c(Cl)c1O2 [1,2,3,6,7,8-HxCDD] be said to have Inhibition rate at or above 10%?
Condition not met

Can Clc1c(Cl)c(Cl)c2c(c1Cl)Oc1c(Cl)c(Cl)c(Cl)c(Cl)c1O2 [OCDD] be said to have Inhibition rate at or above 10%?
Condition not met

Can Clc1cc2oc3c(Cl)c(Cl)c(Cl)c(Cl)c3c2cc1Cl [1,2,3,4,7,8-HxCDF] be said to have Inhibition rate at or above 10%?
Condition not met

Can Clc1cc2oc3c(Cl)c(Cl)c(Cl)cc3c2cc1Cl [2,3,4,7,8-PeCDF] be said to have Inhibition rate at or above 10%?
Condition met

Can Clc1cc2oc3c(Cl)c(Cl)c(Cl)c(Cl)c3c2c(Cl)c1Cl [1,2,3,4,7,8,9-HpCDF] be said to have Inhibition rate at or above 10%?
Condition not met

Can Clc1c(Cl)c(Cl)c2c(oc3c(Cl)c(Cl)c(Cl)c(Cl)c32)c1Cl [OCDF] be said to have Inhibition rate at or above 10%?
Condition not met

Can Clc1cc2c(c(Cl)c1Cl)Oc1c(cc(Cl)c(Cl)c1Cl)O2 [1,2,3,7,8,9-HxCDD] be said to have Inhibition rate at or above 10%?
Condition met

Can Clc1cc2c(oc3c(Cl)c(Cl)c(Cl)cc32)c(Cl)c1Cl [2,3,4,6,7,8-HxCDF] be said to have Inhibition rate at or above 10%?
Condition met

* * *

Test system: monoclonal antibody of clone C-2 (anti-dioxin antibody)
Experiment: Competitive EIA: inhibition of binding of clone C-2 monoclonal antibody to solid-phase antigen by free dioxin
Parameters: species or system mouse
Settings: solid-phase antigen * (haptenized product of 6-(2,4,5-trichlorophenoxy) hexanoic acid amide derivative IIa), dioxin compound 5×10^−7 M
We use 50% as the dividing line for Inhibition rate: on or above the line is satisfied, below is not satisfied.

Clc1cc2oc3c(Cl)c(Cl)c(Cl)c(Cl)c3c2c(Cl)c1Cl: not satisfied

Can `Clc1cc2oc3cc(Cl)c(Cl)c(Cl)c3c2c(Cl)c1Cl` be said to have Inhibition rate at or above 50%?
satisfied

Can `Clc1c(Cl)c(Cl)c2c(c1Cl)Oc1c(Cl)c(Cl)c(Cl)c(Cl)c1O2` be said to have Inhibition rate at or above 50%?
not satisfied

Can `Clc1cc2c(cc1Cl)Oc1c(cc(Cl)c(Cl)c1Cl)O2` be said to have Inhibition rate at or above 50%?
satisfied

Can `Clc1cc2c(c(Cl)c1Cl)Oc1c(cc(Cl)c(Cl)c1Cl)O2` be said to have Inhibition rate at or above 50%?
not satisfied

Can `Clc1cc2c(oc3cc(Cl)c(Cl)c(Cl)c32)c(Cl)c1Cl` be said to have Inhibition rate at or above 50%?
not satisfied

Can `Clc1c(Cl)c(Cl)c2c(oc3c(Cl)c(Cl)c(Cl)c(Cl)c32)c1Cl` be said to have Inhibition rate at or above 50%?
not satisfied

Can `Clc1cc2c(oc3c(Cl)c(Cl)c(Cl)cc32)c(Cl)c1Cl` be said to have Inhibition rate at or above 50%?
satisfied

Can `Clc1cc2oc3cc(Cl)c(Cl)c(Cl)c3c2cc1Cl` be said to have Inhibition rate at or above 50%?
satisfied

Can `Clc1cc2c(cc1Cl)Oc1cc(Cl)c(Cl)cc1O2` be said to have Inhibition rate at or above 50%?
not satisfied

Source of measurements: patent US7166440B2
